- Test system: FXR:RXRa (NR concentration 270 nM, RXRa partner concentration 90 nM)
- measurement description: PBM binding z-score (relative to random genomic background probes); higher = stronger binding; sequences stand for … in GC…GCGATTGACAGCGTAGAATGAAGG
Response key: 1.0 means PBM binding z-score >= -0.05; 0.0 means PBM binding z-score < -0.05.

- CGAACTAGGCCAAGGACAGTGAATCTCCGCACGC: 0.0
- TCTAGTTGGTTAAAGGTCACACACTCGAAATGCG: 1.0
- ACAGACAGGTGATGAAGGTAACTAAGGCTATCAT: 1.0
- TAAATGAGGTTATAAGATCAGGGAACGTTGCAAA: 1.0

Prompt line: Please check the record "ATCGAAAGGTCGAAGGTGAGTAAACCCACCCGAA" and state if its PBM binding z-score is at or above -0.05.
Response line: 1.0

Prompt line: Next up: "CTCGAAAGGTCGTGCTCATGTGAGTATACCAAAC"
Response line: 1.0

Prompt line: One more sequence: "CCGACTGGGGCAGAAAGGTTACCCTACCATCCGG"
Response line: 1.0

Prompt line: Try the sequence "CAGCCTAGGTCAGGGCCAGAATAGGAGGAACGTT"
Response line: 1.0

Prompt line: Another: "CCAGACAGGTGAGAAGGTAACTCAACCTCGATTA"
Response line: 0.0

Prompt line: Entry to check: "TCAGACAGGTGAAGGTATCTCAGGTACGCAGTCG"
Response line: 1.0

Prompt line: Also "AGAACGAAGGCACGCTGAGTTGATAGCAGAGTAG" ?
Response line: 0.0

Prompt line: Consider next the sequence "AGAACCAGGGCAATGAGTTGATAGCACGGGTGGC" in the same way.
Response line: 0.0

====

- Test system: PXR:RXRa (NR concentration 270 nM, RXRa partner concentration 90 nM)
- measurement description: PBM binding z-score (relative to random genomic background probes); higher = stronger binding; sequences stand for … in GC…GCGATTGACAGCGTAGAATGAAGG
Classes by PBM binding z-score: bin A = under 1, bin B = from 1 up to 2, bin C = 2 and over

Would you please look over these solved cases?
- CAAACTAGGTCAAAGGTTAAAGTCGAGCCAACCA: bin C
- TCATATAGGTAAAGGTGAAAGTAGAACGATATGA: bin B
- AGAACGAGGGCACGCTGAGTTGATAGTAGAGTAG: bin B
- AGAATGAGGTTAAGATCAGGGGAACAGAATACAT: bin B
- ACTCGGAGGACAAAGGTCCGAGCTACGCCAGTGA: bin A

Prompt line: Each sequence maps to one class by PBM binding z-score. Which class for "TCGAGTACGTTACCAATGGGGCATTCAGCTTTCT" ?
Response line: bin A

Prompt line: Repeat for the following sequence: "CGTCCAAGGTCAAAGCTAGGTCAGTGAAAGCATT"
Response line: bin C

====

Recorded PBM binding z-score for the following sequences
- Tested on: PPARg:RXRa 30nM:10nM, anti-RXR (NR concentration 30 nM, RXRa partner concentration 10 nM)
- measurement description: PBM binding z-score (relative to random genomic background probes); higher = stronger binding; sequences stand for … in GC…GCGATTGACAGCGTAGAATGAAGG
Form field (numeric): enter value without unit.

Study these solved cases before continuing.
* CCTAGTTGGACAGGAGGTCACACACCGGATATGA | 0.938
* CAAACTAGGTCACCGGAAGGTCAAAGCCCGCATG | 5.9

Prompt line: Using the record for "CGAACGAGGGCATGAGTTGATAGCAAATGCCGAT" , report its PBM binding z-score.
Response line: 0.0506

Prompt line: Do the same for "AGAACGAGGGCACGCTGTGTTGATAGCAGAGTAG" please
Response line: 0.262

Prompt line: Same thing, different sequence: "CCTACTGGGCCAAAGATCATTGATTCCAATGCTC"
Response line: 6.04

Prompt line: Also "CAAATTAGGTCACCGGAAGGTCAAAGTCCGCATG" , if possible.
Response line: 5.87

Prompt line: Lookup "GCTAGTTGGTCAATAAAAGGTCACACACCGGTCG"
Response line: 1.16
